# study-system: menin/MLL (terbium chelate-labeled menin, FITC-MBM1 peptide) (Homo sapiens, UniProt O00255, T541A)
# Construct: Menin (a.a 1-610-6xhis tag)
# Sequence (O00255 with tags, fused parts or gaps T541A): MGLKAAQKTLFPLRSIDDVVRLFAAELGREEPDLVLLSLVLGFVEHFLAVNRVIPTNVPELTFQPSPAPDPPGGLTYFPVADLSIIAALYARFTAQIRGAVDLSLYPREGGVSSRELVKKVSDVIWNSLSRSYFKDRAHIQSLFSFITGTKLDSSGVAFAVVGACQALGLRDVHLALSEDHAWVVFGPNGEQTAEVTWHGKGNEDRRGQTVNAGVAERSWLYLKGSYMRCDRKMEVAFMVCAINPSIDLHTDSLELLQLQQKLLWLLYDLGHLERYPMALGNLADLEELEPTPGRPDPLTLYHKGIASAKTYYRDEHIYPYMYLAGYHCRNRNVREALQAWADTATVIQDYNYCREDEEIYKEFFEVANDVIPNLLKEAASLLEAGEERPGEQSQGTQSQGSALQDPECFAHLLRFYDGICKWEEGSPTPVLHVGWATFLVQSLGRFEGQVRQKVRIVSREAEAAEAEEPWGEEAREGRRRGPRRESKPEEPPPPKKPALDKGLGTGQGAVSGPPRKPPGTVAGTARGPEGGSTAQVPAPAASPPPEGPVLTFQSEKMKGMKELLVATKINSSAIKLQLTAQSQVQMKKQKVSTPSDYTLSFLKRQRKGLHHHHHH
# assay-protocol: Menin/MLL homogenous time-resolved fluorescence (HTRF) assay
# Type: binding
# experimental-context: 30 min incubation
Recorded measurements of IC50, one per entry
observation-type: IC50 (nM)

[
  {
    "compound": "CC(C)[C@H]([C@H]1C[C@@H](N2CC3(COC3)C2)C1)N1CC2(CCN(c3ncnnc3Oc3ccc(F)cc3-c3cnncc3C3CC3)C2)C1 (single isomer, unassigned) [Compound 82]",
    "observation-type": "IC50",
    "recorded-value": 0.4
  },
  {
    "compound": "CC(C)[C@@H]([C@H]1C[C@@H](N2CCC3(CCO3)CC2)C1)N1CC2(CCN(c3ncnnc3Oc3ccc(F)cc3-c3cnncc3C3CC3)C2)C1 (single isomer, unassigned) [Compound 281a]",
    "observation-type": "IC50",
    "recorded-value": 0.17
  },
  {
    "compound": "CC(C)[C@H]([C@H]1C[C@H](N2CC[C@H](C(C)(C)O)C2)C1)N1CC2(CCN(c3ncnnc3Oc3ccc(F)cc3-c3cncnc3C3CC3)C2)C1 (single isomer, unassigned) [Compound 69]",
    "observation-type": "IC50",
    "recorded-value": 0.1
  },
  {
    "compound": "CC(=O)N1CCC2C1CCN2[C@H]1C[C@@H]([C@@H](C(C)C)N2CC3(CCN(c4ncnnc4Oc4ccc(F)cc4-c4cncnc4C4CC4)C3)C2)C1 (single isomer, unassigned) [Compound 54]",
    "observation-type": "IC50",
    "recorded-value": 0.3
  },
  {
    "compound": "Fc1ccc(Oc2nncnc2N2CCC3(C2)CN([C@H](C2CCN(CC4COC4)CC2)C24CC(C2)C4)C3)c(-c2cncnc2C2CC2)c1 (single isomer, unassigned) [Compound 335]",
    "observation-type": "IC50",
    "recorded-value": 0.2
  },
  {
    "compound": "CC(=O)N1CCN([C@H]2C[C@@H](C(C(C)C)N3CC4(CCN(c5ncnnc5Oc5ccc(F)cc5-c5cncc(C#N)c5C5CC5)C4)C3)C2)CC1 (stereo partly shown) [Compound 144]",
    "observation-type": "IC50",
    "recorded-value": 0.8
  },
  {
    "compound": "CC(C)[C@H]([C@H]1C[C@@H](Nc2n[nH]c3ncccc23)C1)N1CC2(CCN(c3ncnnc3Oc3ccc(F)cc3-c3cncnc3C3CC3)C2)C1 (single isomer, unassigned) [Compound 448]",
    "observation-type": "IC50",
    "recorded-value": 0.18
  }
]

====

# System: KO-52 cells
# assay-protocol: Proliferation assay, spheroid-like growth, KO-52 (MLL wildtype control cell line)
# Type: cell-based, human
# experimental-context: Homo sapiens, 192 h, KO-52 control cells, 8 days, confluence as measure of spheroid size; read-out: spheroid assay_OneTime KO-52 IC50
Each entry below lists one item and its recorded IC50 value.
observation-type: IC50 (µM)

[
  {
    "compound": "CC(C)[C@H]([C@H]1C[C@@H](N2CC(O)C3(CC3)C2)C1)N1CC2(CCN(c3ncnnc3Oc3ccc(F)cc3-c3cncnc3C3CC3)C2)C1 (mixture of isomers) [Compound 42]",
    "readout-qualifier": "=",
    "recorded-value": 2.12
  },
  {
    "compound": "CC(=O)N1CC2CN([C@H]3C[C@H]([C@@H](C(C)C)N4CC5(CCN(c6ncnnc6Oc6ccc(F)cc6-c6cncnc6C6CC6)C5)C4)C3)CC2C1 (single isomer, unassigned) [Compound 65]",
    "readout-qualifier": "=",
    "recorded-value": 11.8
  },
  {
    "compound": "CC(C)[C@@H]([C@H]1C[C@]2(COC(=O)N2)C1)N1CC2(CCN(c3ncnnc3Oc3ccc(F)cc3-c3nnccc3C3CC3)C2)C1 (single isomer, unassigned) [Compound 324]",
    "readout-qualifier": ">",
    "recorded-value": 15
  },
  {
    "compound": "CC(C)[C@H]([C@H]1C[C@@H](N2CC[C@](C)(O)C2)C1)N1CC2(CCN(c3ncnnc3Oc3ccc(F)cc3-c3cncnc3C3CC3)C2)C1 [Compound 12]",
    "readout-qualifier": ">",
    "recorded-value": 15
  },
  {
    "compound": "CC(C)[C@H]([C@H]1C[C@]2(CCC(=O)N2)C1)N1CC2(CCN(c3ncnnc3Oc3ccc(F)cc3-c3cncnc3C3CC3)C2)C1 (single isomer, unassigned) [Compound 313]",
    "readout-qualifier": ">",
    "recorded-value": 15
  },
  {
    "compound": "CO[C@H]1[C@@H]2CN([C@H]3C[C@H]([C@H](C(C)C)N4CC5(CCN(c6ncnnc6Oc6ccc(F)cc6-c6cnncc6C6CC6)C5)C4)C3)C[C@@H]21 (single isomer, unassigned) [Compound 282b]",
    "readout-qualifier": "=",
    "recorded-value": 11.5
  },
  {
    "compound": "CC(C)[C@H]([C@H]1C[C@H](N2CC3(COC3)C2)C1)N1CC2(CCN(c3ncnnc3Oc3ccc(F)cc3-c3cnncc3C3CC3)C2)C1 (single isomer, unassigned) [Compound 83]",
    "readout-qualifier": ">",
    "recorded-value": 15
  }
]

====

# System: MOLM14 cells
# assay-protocol: Proliferation assay, spheroid-like growth, MOLM14 (MLL-AF9 rearranged)
# Format: cell-based, human
# experimental-context: Homo sapiens, MOLM-14, 192 h, 8 days, confluence as measure of spheroid size, read-out: spheroid assay_OneTime MOLM14 IC50
pIC50: −log10 of the molar value.
As shown below, each of these molecules has a reported pIC50 value.

[
  {
    "molecule": "CNC(=O)c1cc(N[C@H]2C[C@@H]([C@@H](C(C)C)N3CC4(CCN(c5ncnnc5Oc5ccc(F)cc5-c5cncnc5C5CC5)C4)C3)C2)ccn1 (single isomer, unassigned)",
    "readout-qualifier": "=",
    "pIC50": 7.96
  },
  {
    "molecule": "CC(=O)Nc1cc(NC2CC(C(C(C)C)N3CC4(CCN(c5ncnnc5Oc5ccc(F)cc5-c5cncnc5C5CC5)C4)C3)C2)ccn1 (stereo not drawn)",
    "readout-qualifier": ">",
    "pIC50": 8.74
  },
  {
    "molecule": "CCOC(=O)c1cnc(N[C@H]2C[C@@H](C(C(C)C)N3CC4(CCN(c5ncnnc5Oc5ccc(F)cc5-c5cncnc5C5CC5)C4)C3)C2)o1 (single isomer, unassigned)",
    "readout-qualifier": "=",
    "pIC50": 7.92
  }
]

====

IC50 listing for selected compounds.
# System: MOLM14 cells
# assay-protocol: Proliferation assay, spheroid-like growth, MOLM14 (MLL-AF9 rearranged)
# Type: cell-based, human
# experimental-context: Homo sapiens, MOLM-14, 192 h, 8 days, confluence as measure of spheroid size, read-out: spheroid assay_OneTime MOLM14 IC50

[
  {
    "compound": "CC(C)C(C1CC(C)(O)C1)N1CC2(CCN(c3ncnnc3Oc3ccc(F)cc3-c3cncnc3C3CC3)C2)C1 (single isomer, unassigned)",
    "IC50": "110 nM"
  },
  {
    "compound": "CC(C)[C@@H]([C@H]1C[C@H](NC2CC2)C1)N1CC2(CCN(c3ncnnc3Oc3ccc(F)cc3-c3nnccc3C3CC3)C2)C1 (single isomer, unassigned)",
    "IC50": "110 nM"
  },
  {
    "compound": "CC(C)[C@@H]([C@H]1C[C@@H](N2C[C@H]3COC[C@H]3C2)C1)N1CC2(CCN(c3ncnnc3Oc3ccc(F)cc3-c3cncnc3C3CC3)C2)C1 (single isomer, unassigned)",
    "IC50": "130 nM"
  },
  {
    "compound": "CC(C)[C@H]([C@H]1C[C@H](N2CCC(C)(C(=O)N(C)C)C2)C1)N1CC2(CCN(c3ncnnc3Oc3ccc(F)cc3-c3cncnc3C3CC3)C2)C1 (some centres unmarked)",
    "IC50": "110 nM"
  },
  {
    "compound": "CC(=O)N[C@H]1C[C@@H]([C@H](N2CC3(CCN(c4ncnnc4Oc4ccc(F)cc4-c4cncnc4C4CC4)C3)C2)C23CC(C2)C3)C1 (single isomer, unassigned)",
    "IC50": "82 nM"
  }
]

====

# Tested on: KO-52 cells
# assay-protocol: Proliferation assay, spheroid-like growth, KO-52 (MLL wildtype control cell line)
# Type: cell-based, human
# experimental-context: Homo sapiens, 192 h, KO-52 control cells, 8 days, confluence as measure of spheroid size; read-out: spheroid assay_OneTime KO-52 IC50
observation-type: IC50 (µM)

[
  {
    "compound": "CC(C)C([C@H]1C[C@@H](N2CCS(=O)(=O)CC2)C1)N1CC2(CCN(c3ncnnc3Oc3ccc(F)cc3-c3cncnc3C3CC3)C2)C1 (stereo partly shown)",
    "observation-type": "IC50",
    "readout-qualifier": ">",
    "recorded-value": 15
  },
  {
    "compound": "CC(C)C(C1CC(O)(c2cnn(C)c2)C1)N1CC2(CCN(c3ncnnc3Oc3ccc(F)cc3-c3cncnc3C3CC3)C2)C1 (stereo not shown)",
    "observation-type": "IC50",
    "readout-qualifier": ">",
    "recorded-value": 15
  },
  {
    "compound": "CC(=O)N[C@H]1C[C@@H](C(C(C)C)N2CC3(CCN(c4ncnnc4Oc4ccc(F)cc4-c4cnncc4C4CC4)C3)C2)C1 (stereo partly shown)",
    "observation-type": "IC50",
    "readout-qualifier": ">",
    "recorded-value": 15
  },
  {
    "compound": "CC(C)[C@@H]([C@H]1C[C@]2(COC(=O)N2)C1)N1CC2(CCN(c3ncnnc3Oc3ccc(F)cc3-c3ncccc3C3CC3)C2)C1 (single isomer, unassigned)",
    "observation-type": "IC50",
    "readout-qualifier": ">",
    "recorded-value": 15
  },
  {
    "compound": "COCCN(C)[C@H]1C[C@@H]([C@@H](C(C)C)N2CC3(CCN(c4ncnnc4Oc4ccc(F)cc4-c4cncnc4C4CC4)C3)C2)C1 (single isomer, unassigned)",
    "observation-type": "IC50",
    "readout-qualifier": ">",
    "recorded-value": 15
  },
  {
    "compound": "CC(C)[C@H]([C@H]1C[C@@H](N2CCC(S(C)(=O)=O)CC2)C1)N1CC2(CCN(c3ncnnc3Oc3ccc(F)cc3-c3cncnc3C3CC3)C2)C1 (single isomer, unassigned)",
    "observation-type": "IC50",
    "readout-qualifier": "=",
    "recorded-value": 7.16
  },
  {
    "compound": "CC(C)C([C@H]1C[C@@H](N2CC3(COC3)C2)C1)N1CC2(CCN(c3ncnnc3Oc3ccc(F)cc3-c3cncnc3C3CC3)C2)C1 (single isomer, unassigned)",
    "observation-type": "IC50",
    "readout-qualifier": "=",
    "recorded-value": 4.3
  },
  {
    "compound": "CO[C@H]1CCN([C@H]2C[C@@H]([C@@H](C(C)C)N3CC4(CCN(c5ncnnc5Oc5ccc(F)cc5-c5cnncc5C5CC5)C4)C3)C2)C1 (single isomer, unassigned)",
    "observation-type": "IC50",
    "readout-qualifier": ">",
    "recorded-value": 15
  },
  {
    "compound": "CC(C)C([C@H]1C[C@@H](N2C[C@H]3COC[C@H]3C2)C1)N1CC2(CCN(c3ncnnc3Oc3ccc(F)cc3-c3cnc(C#N)nc3C3CC3)C2)C1 (stereo partly shown)",
    "observation-type": "IC50",
    "readout-qualifier": "=",
    "recorded-value": 1.53
  },
  {
    "compound": "CC(C)[C@H]([C@H]1C[C@@H](N2CCCCC2)C1)N1CC2(CCN(c3ncnnc3Oc3ccc(F)cc3-c3cncnc3C3CC3)C2)C1 (single isomer, unassigned)",
    "observation-type": "IC50",
    "readout-qualifier": "=",
    "recorded-value": 1.06
  },
  {
    "compound": "CC(=O)N1CCC2CN([C@H]3C[C@@H]([C@@H](C(C)C)N4CC5(CCN(c6ncnnc6Oc6ccc(F)cc6-c6cncnc6C6CC6)C5)C4)C3)CC21 (single isomer, unassigned)",
    "observation-type": "IC50",
    "readout-qualifier": "=",
    "recorded-value": 7.54
  },
  {
    "compound": "CC(=O)N[C@H]1C[C@@H]([C@H](N2CC3(CCN(c4ncnnc4Oc4ccc(F)cc4-c4cncnc4C4CC4)C3)C2)C23CC(C2)C3)C1 (single isomer, unassigned)",
    "observation-type": "IC50",
    "readout-qualifier": "=",
    "recorded-value": 5.84
  },
  {
    "compound": "CC(C)[C@@H]([C@H]1C[C@H](N2CC[C@@](C)(O)C2)C1)N1CC2(CCN(c3ncnnc3Oc3ccc(F)cc3-c3cnncc3C3CC3)C2)C1 (single isomer, unassigned)",
    "observation-type": "IC50",
    "readout-qualifier": ">",
    "recorded-value": 15
  }
]
